# maps each entry to its calcium oscillation score
# assayed.system: Tau
# measurement.notes: rat primary cortical neurons, FLIPR, 25 uM ASO
Bases are written 5' to 3'; sugars and linkages follow in the same order, as letters with counts (s phosphorothioate, o phosphodiester; PS: all linkages phosphorothioate). The collection does not say whether C is 5-methylated. l = locked nucleic acid (LNA); d = 2'-deoxy (DNA)

                                   seq_text           measurement_kind             result
0  TCAAAATCCTTAATTTAACC (sugars l4 d12 l4, PS)  calcium oscillation score  70.7 % of control
1  ATTCACACAACAAACTATT (sugars l4 d11 l4, PS)  calcium oscillation score  74.5 % of control
2   CCCAATCTTCGACTGG (sugars l3 d10 l3, PS)  calcium oscillation score  21.7 % of control
3    AACATCATGTCACACA (sugars l4 d8 l4, PS)  calcium oscillation score  56.3 % of control
4  GTTTTCAAACACACCTT (sugars l3 d10 l4, PS)  calcium oscillation score   104 % of control

Query block: Entry TTTATTTCCAAATTCACTTT (sugars l4 d11 l5, PS) has what calcium oscillation score?
Result block: 138 % of control

Query block: // query: ATTAATTATTAAATCTTCT (sugars l4 d11 l4, PS)
Result block: 63.9 % of control

Query block: // query: CAGGAGTTGTAAGC (sugars l3 d8 l3, PS)
Result block: 77.5 % of control

Query block: // query: CCCCACTTTTAATTAAAT (sugars l3 d11 l4, PS)
Result block: 95.2 % of control

Query block: // query: CCACCATACTTGACTTCT (sugars l2 d14 l2, PS)
Result block: 76.8 % of control

Query block: // query: TTAACTCATCAACACCT (sugars l4 d9 l4, PS)
Result block: 86.6 % of control

Query block: // query: AATACAAACAGCCTCCC (sugars l2 d12 l3, PS)
Result block: 61.6 % of control
